Biological target: c-Src SH2
Experiment: SH2 binding enrichment of the phosphorylated peptide, bacterial display (enrichment ratio); higher = better substrate or ligand; peptides without Tyr show the background
measurement.name: SH2 binding enrichment

LGLDECLDKLK [FMNL2_Y352_Y352C] | 0.75
LVSCTYQLARG [FGFR2_Y608] | 0.515
NKFVAYIESQG [KDM4B_Y34_YF] | 0.565
TGGLEYIVPLM [CLCN4_Y548] | 0.52
MKDLTYSSLCF [ALOX5_Y446_A447S] | 0.555

---

Biological target: c-Src SH2;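 also: peptide library displayed on the E. coli surface as eCPX fusions, selected cells deep-sequenced, score is each peptide's frequency after selection divided by its frequency in the input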
Test: SH2 binding enrichment of the phosphorylated peptide, bacterial display (enrichment ratio); higher = better substrate or ligand; peptides without Tyr show the background
measurement.name: SH2 binding enrichment

VASIFYTLVIP [OR8K3_Y277] | 1.01

1 = ADDSYYTARSA [ZAP70_Y493]
2 = LNEWHYGGLTG [PGAM2_Y92_R90W]
// pick min by SH2 binding enrichment: 1 , 2 Pick one and reply with its label.
1

P = FTRNYYVRAVL [CYBA_Y88]
Q = EAEALYQTKFQ [KRT73_Y325]
// pick min by SH2 binding enrichment: P , Q Pick one and reply with its label.
Q
(Q: 0.348, P: 0.53)

a = AKAEICEMRPL [COX10_Y97_Y97C]
b = IGEGTYRTVFK [CDK5_Y15_G16R]
// pick min by SH2 binding enrichment: a , b Pick one and reply with its label.
b

a = RQQQDYWLIDV [ANPEP_Y600]
b = AHPIIYDIIEA [PYKtide_D_2014]
c = PEADKYHLTFA [FGG_Y300_R301H_YF]
Ordering criterion: SH2 binding enrichment; begin with the maximum. Would you mind listing the labels in the order requested?
b, a, c
(b: 1.25, a: 0.586, c: 0.301)

a = KFANSYRMEPL [TCTE3_Y87]
b = SKKVRYVVSKA [BARD1_Y156]
Endpoint returns whichever of a and b has the numerically higher SH2 binding enrichment. Pick one and reply with its label.
b
(b: 1.32, a: 0.653)

I = VDEERYDIEGK [TNNI3_Y112_A116G]
II = SSPRRYTIAAL [TTR_Y125_G121S]
Endpoint returns whichever of I and II has the numerically higher SH2 binding enrichment. Pick one and reply with its label.
I
(I: 0.683, II: 0.477)

a = KSELAYEIFDK [MYOM2_Y1024]
b = RQQEDYLLFKQ [RARRES1_Y159_YF]
Endpoint returns whichever of a and b has the numerically higher SH2 binding enrichment. Pick one and reply with its label.
a
